Target: T1, human PVRIG on cells (human, UniProt Q6DKI7 1-326)
T1 construct: whole, on cells; over-expressed on HEK cells or endogenous on Jurkat and CD8 T cells; also called hPVRIG; HEK hPVRIG cells
T1 sequence (looked up): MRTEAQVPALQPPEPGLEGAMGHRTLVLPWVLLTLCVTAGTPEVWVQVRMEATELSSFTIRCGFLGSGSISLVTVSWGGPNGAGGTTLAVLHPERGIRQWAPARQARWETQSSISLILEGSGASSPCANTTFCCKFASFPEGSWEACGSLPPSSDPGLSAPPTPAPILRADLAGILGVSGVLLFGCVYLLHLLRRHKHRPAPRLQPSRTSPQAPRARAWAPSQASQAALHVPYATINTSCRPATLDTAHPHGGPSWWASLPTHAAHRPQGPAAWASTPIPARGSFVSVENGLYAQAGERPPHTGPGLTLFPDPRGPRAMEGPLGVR
Test: FACS, human PBMC, CD8+ T cells, 10ug/ml
Result Type: gMFIr Human CD8+ T cells
Could you keep your reply to the number by itself?

Identify gMFIr Human CD8+ T cells associated with the binder CHA.7.543 (antibody, V domains shown) VH: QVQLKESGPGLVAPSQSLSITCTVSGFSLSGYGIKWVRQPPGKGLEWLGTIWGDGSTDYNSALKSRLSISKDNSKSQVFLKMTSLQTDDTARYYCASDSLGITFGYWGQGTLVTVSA VL: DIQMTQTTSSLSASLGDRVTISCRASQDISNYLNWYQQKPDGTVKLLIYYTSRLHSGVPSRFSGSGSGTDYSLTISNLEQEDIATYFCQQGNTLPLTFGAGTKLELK 4.33

Identify gMFIr Human CD8+ T cells associated with the binder CHA.7.534 (antibody, V domains shown) VH: EVQLQQSGAELVKPGASVRLSCTASGFSIRDTYIHWVKQRPEQGLDWIGKIDPANGKSEYDPKFQGRATMTTDTSSNTAYLQLSSLTSEDTAVYYCTRYGYYPYFDVWGAGTTVTVFS VL: SIVMTQTPKFLLVSAGDRVAITCKASQSVRHDVVWYQQKPGQSPKLLIYYASSRYTGVPDRFTGSGYGTDFTFTISTVQAEDLALYFCLQDFSSPWTFGGGTKLEIK 1.96

Identify gMFIr Human CD8+ T cells associated with the binder CHA.7.537 (antibody, V domains shown) VH: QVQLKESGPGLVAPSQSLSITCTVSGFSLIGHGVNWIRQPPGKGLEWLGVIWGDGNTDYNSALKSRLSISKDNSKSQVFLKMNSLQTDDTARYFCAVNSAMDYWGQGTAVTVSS VL: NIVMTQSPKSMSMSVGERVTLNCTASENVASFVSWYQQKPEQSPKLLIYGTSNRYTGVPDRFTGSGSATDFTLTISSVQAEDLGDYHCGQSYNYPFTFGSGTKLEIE 3.41

Identify gMFIr Human CD8+ T cells associated with the binder CHA.7.508 (antibody, V domains shown) VH: EVQLQQSGPDLVKPGASMKISCKASGYTFIDYNIHWVKQSQGKSLDWIGYIYPYNGGTGYNQKFKNKATLTVDSSSSTAYMEVRSLTFEDSAVYFCAREADYYGNRGQFDYWGQGTLVTVSA VL: DIQMTQSPASLSVSVGETVTITCRASENIFSNLAWYQQKQGKSPQLLVYGEANLADGVPSRFSGSGSGTQYSLKINSLQSEDFGNYYCQHFWGTPYTFGGGTTLEIK 4.09

Identify gMFIr Human CD8+ T cells associated with the binder CHA.7.528 (antibody, V domains shown) VH: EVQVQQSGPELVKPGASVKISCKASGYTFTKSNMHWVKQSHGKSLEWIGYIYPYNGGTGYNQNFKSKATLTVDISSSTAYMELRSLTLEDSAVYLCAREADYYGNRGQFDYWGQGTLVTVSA VL: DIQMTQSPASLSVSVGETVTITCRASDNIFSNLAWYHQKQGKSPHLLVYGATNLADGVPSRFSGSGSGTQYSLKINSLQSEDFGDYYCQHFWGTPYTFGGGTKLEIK 3.63

Others:
Identify gMFIr Human CD8+ T cells associated with the binder CHA.7.526 (antibody, V domains shown) VH: QVQLKESGPGLVAPSQSLSITCTVSGFSLTAYNINWVRQPPGKGLEWLGMIWGDGNTDYNSPLKSRLTISKDNSKSQVFLKMDSLQTDDTARYYCARDLKVRRDSPYTMDYWGQGTSVTVSS VL: NIMMTQSPSSLAVSAGEKVTMSCKSSQSVLYSSNQKNYLAWYQQKPGQSPKLLIYWASNRESGVPDRFTGSGSGTDFTLTISSVQAEDLAVYYCHQYLSSYTFGGGTKLEIK 1.71

Identify gMFIr Human CD8+ T cells associated with the binder CHA.7.549 (antibody, V domains shown) VH: QVQLQQPGTELVKPGASVKLSCKASGFTFTTHWMHWVRQRPGQGLEWIGNIYPSNGGSNYNEKFKTKATLTVDRSSSTAYMHLSSLTSEDSAVYYCARRVNWDGYYFDYWGQGTTLTVSS VL: DIVMTQSQKFMSTSVGDRVSVTCKASQNVGTNVAWYQQKPGQSPKLLIYSASYRYSGVPDRFTGSGSGTDFTLTISNVQSEDLADYFCQQYNSYPLTFGGGTKLEIK 1.42

Identify gMFIr Human CD8+ T cells associated with the binder CHA.7.516 (antibody, V domains shown) VH: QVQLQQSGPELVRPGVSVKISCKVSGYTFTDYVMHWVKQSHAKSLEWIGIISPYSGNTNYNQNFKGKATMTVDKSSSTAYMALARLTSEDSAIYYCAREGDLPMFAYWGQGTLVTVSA VL: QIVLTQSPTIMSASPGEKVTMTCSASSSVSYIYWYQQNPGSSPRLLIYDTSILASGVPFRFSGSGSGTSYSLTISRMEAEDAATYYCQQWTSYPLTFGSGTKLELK 4.09

Identify gMFIr Human CD8+ T cells associated with the binder CHA.7.512 (antibody, V domains shown) VH: QIQLVQSGPELKKPRETVKISCKASGYTFTDYSMHWVKQAPGKGLKWMGWINTETGEPTYADDFKGRFAFSLEASASSAYLQINILKDEDTATYFCARSRGGYYEDYYALDYWGQGTSVTVSS VL: DIQMTQSPASLSASVGESVTITCRASGNIHYYLAWYQQKQGKSPQLLVYNAKNLADGVPSRFSGSGSGTQFSLKINSLQPEDFGSYYCQHFWISPPTFGGGTKLEIK 1.15

Identify gMFIr Human CD8+ T cells associated with the binder CHA.7.547 (antibody, V domains shown) VH: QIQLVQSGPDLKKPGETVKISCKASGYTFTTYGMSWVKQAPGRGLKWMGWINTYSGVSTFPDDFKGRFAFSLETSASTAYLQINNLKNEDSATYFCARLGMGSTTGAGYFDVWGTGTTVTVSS VL: ENVLTQSPAIMSASLGEKVTLSCRASSSVNYMYWYQQKSDASPKLWIYYTSNLAPGVPARFSGSGSGNSYSLTISSVEGEDAATYYCQQFTSSPWTFGGGTKLEIK 1.13

Identify gMFIr Human CD8+ T cells associated with the binder CHA.7.502 (antibody, V domains shown) VH: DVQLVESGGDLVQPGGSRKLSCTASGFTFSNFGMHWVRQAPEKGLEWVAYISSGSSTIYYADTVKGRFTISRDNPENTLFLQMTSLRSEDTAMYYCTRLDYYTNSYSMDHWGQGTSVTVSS VL: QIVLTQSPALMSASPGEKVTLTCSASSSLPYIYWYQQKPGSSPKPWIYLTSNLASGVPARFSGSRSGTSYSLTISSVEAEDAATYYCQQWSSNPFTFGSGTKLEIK 1.41

The origin of these recorded values is patent US20240075137A1.
